Would you kindly list IC50 for each of these binders?
target-of-assay: T1, Human plasma sIL-6R (human, UniProt P08887 20-355, limits assumed)
T1 construct: also called plasma-derived human IL-6R
T1 sequence (looked up): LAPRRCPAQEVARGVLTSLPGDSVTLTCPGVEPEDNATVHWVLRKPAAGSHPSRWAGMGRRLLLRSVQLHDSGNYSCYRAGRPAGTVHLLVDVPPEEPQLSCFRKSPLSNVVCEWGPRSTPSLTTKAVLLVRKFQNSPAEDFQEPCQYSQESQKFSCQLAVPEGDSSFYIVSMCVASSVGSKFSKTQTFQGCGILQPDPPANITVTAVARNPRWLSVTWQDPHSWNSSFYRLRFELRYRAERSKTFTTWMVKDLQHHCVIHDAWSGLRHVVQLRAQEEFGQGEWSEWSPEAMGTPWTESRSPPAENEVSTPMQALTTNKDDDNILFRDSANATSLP
assay-details: plasma potency assay, human plasma, 42 nM IL6; sIL-6R captured on BN-12, bound IL-6 detected; blocked ligand IL-6
Use nM as the unit, but write only the number.

Data request, read-out IC50, for PMP7D6 (VHH, not shown: c-myc and (His)6 tags) VHH: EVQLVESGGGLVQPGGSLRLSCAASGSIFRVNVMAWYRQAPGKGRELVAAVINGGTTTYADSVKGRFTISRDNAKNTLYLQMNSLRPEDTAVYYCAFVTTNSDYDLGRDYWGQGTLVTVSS
0.8

Data request, read-out IC50, for PMP7F4 (VHH) VHH: EVQLVESGGGLVQPGGSLRLSCAASGTTFKVNVMAWYRQAPGKGRELVAGIINGGSTTYADSVKGRFTISRDNAKNTLYLQMNSLRPEDTAVYYCAFVTTNSDYDLGRDYWGQGTLVTVSS
1.2

Data request, read-out IC50, for PMP7C4 (VHH, not shown: c-myc and (His)6 tags) VHH: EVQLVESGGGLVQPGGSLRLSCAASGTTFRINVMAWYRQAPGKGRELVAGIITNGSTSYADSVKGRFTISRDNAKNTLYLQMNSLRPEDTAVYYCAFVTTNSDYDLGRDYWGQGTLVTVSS
0.9

Data request, read-out IC50, for PMP7G7 (VHH, expressed with c-myc and (His)6 tags) VHH: EVQLVESGGGLVQPGGSLRLSCAASGTTFKINIMAWYRQAPGKGRELVAGVITGGNTTYADSVKGRFTISRDNAKNTLYLQMNSLRPEDTAVYYCAFVTTNSDYDLGRDYWGQGTLVTVSS
1.5

Data request, read-out IC50, for IL6R65 (VHH, also called ILR65; parent Nanobody) VHH: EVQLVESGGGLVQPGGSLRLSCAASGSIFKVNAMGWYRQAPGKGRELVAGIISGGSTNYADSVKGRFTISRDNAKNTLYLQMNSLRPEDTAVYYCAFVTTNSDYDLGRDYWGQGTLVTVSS
61.5

Data request, read-out IC50, for PMP7G8 (VHH, expressed with c-myc and (His)6 tags) VHH: EVQLVESGGGLVQPGGSLRLSCAASGSTFRINVMAWYRQAPGKGRELVAGVINDGSTTYADSVKGRFTISRDNAKNTLYLQMNSLRPEDTAVYYCAFVTTNSDYDLGRDYWGQGTLVTVSS
3.5
